Tested on: Rice Green Leafhopper (Nephotettix virescens)
protocol-summary: whole plant or invertebrate
Assay type: in vivo
assay-context: adults, after 72 hours, read-out: mortality in comparison with untreated controls
quantity-kind: mortality at 300 ppm

In the examples that follow, each entry is paired with its recorded mortality at 300 ppm.
# query-smiles, mortality at 300 ppm
data = [
    ("CCS(CC)=Nc1c(-c2cc(Cl)c3c(c2)OCO3)c(C(F)(F)F)nn1-c1ncccn1", "≥ 75%"),
    ("CCS(CC)=Nc1c(-c2cc(Cl)cc(C(F)(F)F)c2)c(C(F)(F)F)nn1-c1ncccn1", "≥ 75%"),
]

Qu. Kindly state the measured mortality at 300 ppm obtained for CC(C)S(=Nc1c(-c2cc(Cl)c3c(c2)OCO3)c(C(F)(F)F)nn1-c1ncccn1)C(C)C with Rice Green Leafhopper (Nephotettix virescens).
Ans. ≥ 75%

Qu. Another molecule to look at: CC(C)S(=Nc1c(-c2cc(Cl)cc(C(F)(F)F)c2)c(C(F)(F)F)nn1-c1ncccn1)C(C)C
Ans. ≥ 75%

Qu. Another molecule to look at: FC(F)(F)c1nn(-c2ncccn2)c(N=S2CCCC2)c1-c1cc(Cl)c2c(c1)OCO2
Ans. ≥ 75%

Qu. Another molecule to look at: FC(F)(F)c1cc(Cl)cc(-c2c(C(F)(F)F)nn(-c3ncccn3)c2-n2cccc2)c1
Ans. ≥ 75%

Data origin, for the record: patent US9174967B2
